Measurement setup: in toluene, 283.15 K
Measured quantity: solubility (mole fraction)
Response field accepts a number only; no unit should be typed.

// query Give the reported value of solubility (mole fraction) for this record: O=[N+]([O-])c1cccc2cccc([N+](=O)[O-])c12
// result 0.00171

---

Measurement setup: in acetone, 273.15 K
Measured quantity: solubility (mole fraction)
Response field accepts a number only; no unit should be typed.

// query Give the reported value of solubility (mole fraction) for this record: O=[N+]([O-])c1cccc2cccc([N+](=O)[O-])c12
// result 0.0103

---

Measurement setup: in chloroform, 303.15 K
Measured quantity: solubility (mole fraction)
Response field accepts a number only; no unit should be typed.

// query Give the reported value of solubility (mole fraction) for this record: O=[N+]([O-])c1cccc2cccc([N+](=O)[O-])c12
// result 0.00923

The measurements presented in this section are drawn from BigSolDB 2.1.
